# Test system: H9c2;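 also: cell death induced by hydrogen peroxide oxidative stress; compound pretreatment for 60 min then peroxide exposure for 2 h; potency is for protecting the cells against peroxide damage rather than for killing them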;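 also: confirmatory concentration-response retest of ultra-high-throughput screening hits for modulation of myocardial damage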
# procedureDetails: cells
# Assay type: functional, cell-based
# conditionDetails: Rattus norvegicus, H9c2, Myocardium
Active and inactive are the calls of the source.
Labels: active, inactive

compound	group
C=CC[C@@H](CC(=O)N[C@H](CO)Cc1ccccc1)C(=O)N[C@@H](COC(=O)[C@@H](CC=C)CC(=O)OC(C)(C)C)Cc1ccccc1	active
COc1ccc(C(C(=O)NC2CCCC2)N(C(=O)c2snc(C(N)=O)c2N)c2cccc(O)c2)cc1 (centres undefined)	inactive
O=C1N[C@H](Cc2c[nH]c3ccccc23)COC(=O)[C@H](Cc2ccc(F)cc2)C/C=C\C[C@H]1CC(=O)N(CCO)Cc1ccccc1	inactive
Cc1nnc(SCC(=O)N/N=C/c2cn(-c3ccccc3)nc2-c2ccccc2)n1-c1ccccc1	inactive

====

# measuredOn: Prothrombin (Homo sapiens)
# procedureDetails: Thrombin 1536 HTS Dose Response Confirmation. [Related pubchem assays: 1046 (Thrombin 1536 HTS; hits were confirmed in this assay)]
# Type: functional
Activity calls are given as the source filed them.
Reported IC50 by item:

compound	IC50
CCCOc1cccc(C(=O)N(Cc2ccco2)C2CCS(=O)(=O)C2)c1 (stereo not given)	> 50 µM (not active)
Cc1ccc(C)c(S(=O)(=O)NCCCN2CCOCC2)c1	> 50 µM (not active)
Cc1ccc(C(=O)n2cnnc2N)cc1C	1.87 µM (active)
CC(C)NC(=O)c1ccc(C(C)C)cc1	> 50 µM (not active)
COc1ccc(-c2c[n+]3c4n2CCCCC4=C(c2ccccc2)C3)cc1	> 50 µM (not active)

====

# measuredOn: Peroxisome proliferator-activated receptor gamma/Nuclear receptor coactivator 3 (Homo sapiens, UniProt P37231)
# Sequence (P37231 whole entry): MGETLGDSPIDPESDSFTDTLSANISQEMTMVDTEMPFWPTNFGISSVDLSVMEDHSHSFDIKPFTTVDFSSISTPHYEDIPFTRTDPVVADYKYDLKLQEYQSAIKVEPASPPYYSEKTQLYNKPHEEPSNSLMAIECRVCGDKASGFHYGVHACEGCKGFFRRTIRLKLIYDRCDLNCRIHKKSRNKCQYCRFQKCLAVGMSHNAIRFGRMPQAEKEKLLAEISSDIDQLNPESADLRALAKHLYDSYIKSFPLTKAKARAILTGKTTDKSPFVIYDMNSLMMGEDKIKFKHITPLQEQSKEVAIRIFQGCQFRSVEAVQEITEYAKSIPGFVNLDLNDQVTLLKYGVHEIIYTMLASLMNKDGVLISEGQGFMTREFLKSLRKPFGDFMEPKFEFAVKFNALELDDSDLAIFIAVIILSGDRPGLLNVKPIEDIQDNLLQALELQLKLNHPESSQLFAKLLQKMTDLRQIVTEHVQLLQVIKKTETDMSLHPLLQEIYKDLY
# Sequence (Q9Y6Q9 whole entry, further chain): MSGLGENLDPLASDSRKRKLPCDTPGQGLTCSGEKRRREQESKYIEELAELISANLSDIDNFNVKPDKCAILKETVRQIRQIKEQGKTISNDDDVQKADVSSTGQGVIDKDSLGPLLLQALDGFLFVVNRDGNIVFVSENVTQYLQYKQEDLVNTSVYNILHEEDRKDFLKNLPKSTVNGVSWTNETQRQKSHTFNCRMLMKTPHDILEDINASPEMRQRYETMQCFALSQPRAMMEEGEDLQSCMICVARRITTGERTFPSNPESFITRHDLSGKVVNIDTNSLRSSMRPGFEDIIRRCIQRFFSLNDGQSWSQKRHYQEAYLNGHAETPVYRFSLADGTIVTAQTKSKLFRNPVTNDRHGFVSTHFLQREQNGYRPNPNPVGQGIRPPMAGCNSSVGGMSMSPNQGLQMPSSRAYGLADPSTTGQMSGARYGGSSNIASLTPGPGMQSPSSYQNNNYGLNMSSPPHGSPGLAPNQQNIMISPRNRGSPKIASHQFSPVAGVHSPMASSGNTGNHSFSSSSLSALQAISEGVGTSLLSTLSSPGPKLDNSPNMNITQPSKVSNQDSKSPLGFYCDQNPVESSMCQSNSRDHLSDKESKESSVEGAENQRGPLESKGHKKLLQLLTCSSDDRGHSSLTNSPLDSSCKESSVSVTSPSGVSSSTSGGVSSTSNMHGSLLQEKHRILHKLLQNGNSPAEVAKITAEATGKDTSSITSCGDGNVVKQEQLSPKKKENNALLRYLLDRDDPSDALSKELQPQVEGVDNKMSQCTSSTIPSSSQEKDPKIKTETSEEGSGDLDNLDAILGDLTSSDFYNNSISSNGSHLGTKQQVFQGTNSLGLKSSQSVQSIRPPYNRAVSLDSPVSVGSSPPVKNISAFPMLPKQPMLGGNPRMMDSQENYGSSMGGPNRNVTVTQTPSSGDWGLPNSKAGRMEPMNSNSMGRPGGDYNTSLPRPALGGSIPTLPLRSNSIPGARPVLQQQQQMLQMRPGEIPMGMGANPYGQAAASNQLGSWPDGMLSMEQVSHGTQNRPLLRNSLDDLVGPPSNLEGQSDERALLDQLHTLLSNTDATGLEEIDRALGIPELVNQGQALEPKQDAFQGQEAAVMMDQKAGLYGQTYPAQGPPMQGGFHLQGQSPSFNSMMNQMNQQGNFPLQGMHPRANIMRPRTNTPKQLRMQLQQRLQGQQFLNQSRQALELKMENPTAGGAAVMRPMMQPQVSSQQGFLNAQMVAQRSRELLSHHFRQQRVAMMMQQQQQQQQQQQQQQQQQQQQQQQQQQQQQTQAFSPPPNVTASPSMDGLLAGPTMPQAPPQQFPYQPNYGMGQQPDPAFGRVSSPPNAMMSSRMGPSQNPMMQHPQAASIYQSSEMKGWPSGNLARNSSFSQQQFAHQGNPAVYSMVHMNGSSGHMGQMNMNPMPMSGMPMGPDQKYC
# procedureDetails: TR-FRET dose response biochemical High Throughput Screening assay for agonists of the steroid receptor coactivator 3 (SRC-3) recruitment by the peroxisome proliferator-activated receptor gamma (PPAR gamma): non-selective agonists. [Related pubchem assays: 1301 (Confirmation screen.), 1048 (Primary screen.)]
# Format: functional

compound	EC50
CCCCOC(=O)CNc1nnc(S)nc1O	91.3 µM (not active)
CN(Cc1ccccc1)C(=O)CSc1cc(=O)n(C)c2ccccc12	> 79.4 µM (not active)
c1ccc2[nH]c(CSc3ncnc4c3oc3ccccc34)nc2c1	> 79.4 µM (not active)
CCOC(=O)c1c(C)nsc1S	> 79.4 µM (not active)
COc1ccc(NC(C)C(=O)N/N=C/c2ccccc2OCc2cccc(Br)c2)cc1 (stereo unspecified)	> 79.4 µM (not active)
CC(=O)CSc1ncnc2c1oc1ccccc12	> 79.4 µM (not active)

====

# measuredOn: Large T antigen (Simian virus 40, UniProt P03070)
# Sequence (P03070 whole entry): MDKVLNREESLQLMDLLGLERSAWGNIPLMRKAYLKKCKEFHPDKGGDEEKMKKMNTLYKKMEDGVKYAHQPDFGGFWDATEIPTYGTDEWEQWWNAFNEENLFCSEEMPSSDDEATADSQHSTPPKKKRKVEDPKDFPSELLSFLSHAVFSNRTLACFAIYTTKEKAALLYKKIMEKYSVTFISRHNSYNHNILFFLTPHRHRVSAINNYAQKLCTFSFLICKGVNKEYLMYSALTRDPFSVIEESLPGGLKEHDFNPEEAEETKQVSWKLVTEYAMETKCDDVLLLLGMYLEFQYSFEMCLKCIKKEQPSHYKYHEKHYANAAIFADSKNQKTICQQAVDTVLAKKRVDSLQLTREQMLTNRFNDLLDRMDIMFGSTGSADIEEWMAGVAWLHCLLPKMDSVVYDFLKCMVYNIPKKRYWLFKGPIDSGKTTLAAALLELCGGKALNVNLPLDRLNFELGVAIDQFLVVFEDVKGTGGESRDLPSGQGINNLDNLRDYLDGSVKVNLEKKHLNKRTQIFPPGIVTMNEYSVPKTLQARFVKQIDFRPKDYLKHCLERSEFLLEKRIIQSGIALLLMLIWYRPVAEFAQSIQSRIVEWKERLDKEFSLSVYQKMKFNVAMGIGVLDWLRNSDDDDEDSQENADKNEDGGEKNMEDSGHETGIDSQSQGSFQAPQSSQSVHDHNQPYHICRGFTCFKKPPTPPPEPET
# Format: functional, Betapolyomavirus macacae
The source made the active and inactive calls.
endpointName: IC50

molecule	endpointName	obsValue
COc1cccc(/C=N/n2c(S)nnc2-c2cc(C)[nH]n2)c1O	IC50	16 µM (active)
CCN(CC)c1ccc(NC(=O)COC(=O)COc2ccccc2[N+](=O)[O-])cc1	IC50	10.4 µM (active)
COc1ccc(/C=C(/C#N)C(=O)Nc2ccc(O)cc2)cc1C(=O)O	IC50	36.9 µM (active)
CN(C)c1ccc(NC(S)=NCC2CCCO2)cc1 (centres undefined)	IC50	14.3 µM (active)
Oc1cc(-c2ccc(Br)cc2)[nH]n1	IC50	53.9 µM (active)
N#C/C(=C\c1ccc(O)c(O)c1)C(=O)NCCCc1ccccc1	IC50	21 µM (active)
Oc1cc(O)c2c(c1)OC(c1ccc(O)c(O)c1)C(O)C2 (centres undefined)	IC50	8.64 µM (active)
Nc1c(O)cccc1C(=O)O	IC50	20.1 µM (active)
CCOc1ccc(N2Nc3[nH]nc(N)c3N2)cc1	IC50	18 µM (active)

====

# measuredOn: Cytochrome P450 2C19 (Homo sapiens, UniProt P33261)
# Sequence (P33261 whole entry): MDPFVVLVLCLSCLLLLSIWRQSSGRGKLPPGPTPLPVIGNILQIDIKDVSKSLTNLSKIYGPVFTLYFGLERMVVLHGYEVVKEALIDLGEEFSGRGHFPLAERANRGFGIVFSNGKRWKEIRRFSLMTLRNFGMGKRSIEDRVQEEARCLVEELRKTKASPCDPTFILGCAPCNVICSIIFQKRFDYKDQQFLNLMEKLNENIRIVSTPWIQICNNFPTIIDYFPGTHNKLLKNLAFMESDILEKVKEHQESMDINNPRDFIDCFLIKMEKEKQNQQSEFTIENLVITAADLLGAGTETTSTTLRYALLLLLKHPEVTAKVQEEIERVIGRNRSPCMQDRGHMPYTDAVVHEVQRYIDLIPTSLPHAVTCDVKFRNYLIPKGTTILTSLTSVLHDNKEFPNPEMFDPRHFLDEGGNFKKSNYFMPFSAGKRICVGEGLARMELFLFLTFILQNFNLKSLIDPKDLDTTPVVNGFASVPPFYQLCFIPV
# procedureDetails: Cytochrome panel assay with activity outcomes. Panel member name: p450-cyp2c19 Compounds with AC50 equal or less than 10 uM are considered active
# Type: functional
# conditionDetails: read-out: AC50
Reported AC50 by item:

compound	AC50
O=C(c1cccc(F)c1)N1CCC2(CCCN(C(c3ccccc3)c3ccccc3)C2)CC1	5.01 µM (inconclusive)
COCCCNCC(=O)c1c(N)n(Cc2ccccc2)c(=O)n(C)c1=O	35.5 µM (inconclusive)
CC(C)NC(=O)N1CCC2(CC1)CCN(S(C)(=O)=O)CC2	39.8 µM (inconclusive)
CN1C(=O)/C(=C(/C#N)c2nc3ccccc3[nH]2)c2ccccc21	11.2 µM (inconclusive)
Cc1c(Cl)cccc1NC(=O)C[C@H]1Sc2ccccc2NC1=O	3.16 µM (inconclusive)
O=c1c(-c2ccc(O)cc2)coc2cc(O)cc(O)c12	10 µM (inconclusive)
Cc1ccc(Sc2nc(-c3ccccc3)ccc2C#N)cc1	0.631 µM (inconclusive)
C=CCn1c(COc2ccccc2)nnc1SCC(=O)N/N=C/c1ccc(C)cc1	15.8 µM (inconclusive)
CCN1C(=O)C(O)(C2COC(C)(C)CC2=O)c2ccccc21 (stereo unspecified)	25.1 µM (inconclusive)
COc1ccc(Oc2ncc3ncc(=O)n(Cc4cccs4)c3n2)cc1	25.1 µM (inconclusive)
O=C(Nc1cnn(Cc2ccc(Cl)cc2)c1)c1ccc([N+](=O)[O-])cc1	2.24 µM (inconclusive)

====

Endpoint: AC50. System: Cytochrome P450 2D6 (Homo sapiens). Items follow.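 Also: CYP2D6 member of a cytochrome P450 panel assay.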
Sequence (P10635 whole entry): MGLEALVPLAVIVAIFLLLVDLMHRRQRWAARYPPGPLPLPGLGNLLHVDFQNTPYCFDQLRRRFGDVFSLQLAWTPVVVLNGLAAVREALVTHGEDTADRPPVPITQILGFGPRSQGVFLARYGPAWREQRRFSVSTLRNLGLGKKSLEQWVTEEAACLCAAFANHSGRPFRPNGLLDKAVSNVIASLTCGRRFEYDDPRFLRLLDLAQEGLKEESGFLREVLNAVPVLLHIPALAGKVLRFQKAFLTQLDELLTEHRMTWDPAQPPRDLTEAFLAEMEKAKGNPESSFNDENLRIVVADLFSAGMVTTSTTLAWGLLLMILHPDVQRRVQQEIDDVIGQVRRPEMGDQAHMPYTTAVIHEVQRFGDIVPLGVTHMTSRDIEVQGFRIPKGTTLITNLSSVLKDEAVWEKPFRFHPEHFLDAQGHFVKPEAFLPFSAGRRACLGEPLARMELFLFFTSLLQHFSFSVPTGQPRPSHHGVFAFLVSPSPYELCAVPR
endpointName: AC50

molecule	endpointName	obsValue
COc1cc(C(=O)OC2C[C@H]3CC[C@@H](C2)N3C)ccc1O (stereo partly specified)	AC50	7.94 µM (inconclusive)
C/C(=N\Nc1ccc([N+](=O)[O-])cc1)c1cccc(N)c1	AC50	17.8 µM (inconclusive)
COCCCNCC(=O)c1c(N)n(Cc2ccccc2)c(=O)n(C)c1=O	AC50	14.1 µM (inconclusive)
Cc1ccc(C(=O)c2oc3nc(C)cc(C)c3c2N)cc1	AC50	10 µM (inconclusive)
COc1cccc(-c2cncnc2NCc2cnc(C)cn2)c1	AC50	15.8 µM (inconclusive)
COc1ccc(Oc2ncc3ncc(=O)n(Cc4cccs4)c3n2)cc1	AC50	39.8 µM (inconclusive)
O=C(c1ccccc1)C1CN(c2ccccc2)CC1c1ccc(Cl)cc1 (stereo unspecified)	AC50	3.16 µM (inconclusive)
CCC1(C)Cc2c(sc3nnn(CC(=O)Nc4ccc(C)cc4)c(=O)c23)CO1 (stereo unspecified)	AC50	22.4 µM (inconclusive)
O=C(c1ccncc1)N1CCC2(CCN(Cc3ccccc3)CC2)CC1	AC50	12.6 µM (inconclusive)
c1ccc2cc(CC3=NCCN3)ccc2c1	AC50	39.8 µM (inconclusive)
O=C(c1cccc(F)c1)N1CCC2(CCCN(C(c3ccccc3)c3ccccc3)C2)CC1	AC50	10 µM (inconclusive)

====

# measuredOn: Estrogen receptor beta (Homo sapiens)
# Sequence (Q92731 whole entry): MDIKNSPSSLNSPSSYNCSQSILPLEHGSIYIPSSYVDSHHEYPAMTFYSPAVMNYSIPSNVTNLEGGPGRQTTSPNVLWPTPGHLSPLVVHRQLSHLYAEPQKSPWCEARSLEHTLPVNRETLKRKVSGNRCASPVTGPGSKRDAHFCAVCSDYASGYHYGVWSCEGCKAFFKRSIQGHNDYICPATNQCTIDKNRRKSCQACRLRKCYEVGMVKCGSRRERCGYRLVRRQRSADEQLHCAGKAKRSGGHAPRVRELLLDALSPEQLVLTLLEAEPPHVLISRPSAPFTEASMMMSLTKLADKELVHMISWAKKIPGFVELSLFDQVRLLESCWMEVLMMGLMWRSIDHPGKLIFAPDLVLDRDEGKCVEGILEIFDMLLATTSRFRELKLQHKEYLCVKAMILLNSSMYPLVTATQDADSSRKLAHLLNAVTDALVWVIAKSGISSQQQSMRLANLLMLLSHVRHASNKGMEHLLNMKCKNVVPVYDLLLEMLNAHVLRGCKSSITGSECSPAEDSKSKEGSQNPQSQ
The source made the active and inactive calls.
Reported IC50 by item:

smilesRepr	IC50
Cc1oc2c(cc(NS(=O)(=O)c3ccc4c5c(cccc35)C(=O)N4)c3ccccc32)c1C(=O)OC(C)C	34.8 µM (not active)
O=S(=O)(NCc1csc(-c2cccnc2)n1)c1ccc(Cl)s1	11.8 µM (active)
CC(=N)/C(C#N)=C(/O)CSc1nnc(COc2ccccc2Cl)o1	8.99 µM (active)
CCOC(=O)C1=C(O)/C(=C\c2ccc(CNC(=O)C(=O)Nc3ccccc3)o2)N=C1C	< 1.56 µM (active)
N=c1c(C(=O)NCc2ccco2)cc2c(=O)n3ccccc3nc2n1CCc1ccccc1	> 50 µM (not active)
O=C(COC(=O)c1ccccc1)NCc1ccco1	5.54 µM (active)

====

# procedureDetails: cells
# Assay type: functional, cell-based
Calls of active or inactive are those of the source.

molecule	EC50
CCC(Cc1ccccc1)n1c(=S)[nH]c2ccccc2c1=O (stereo unspecified)	> 350 µM (not active)
O=C(CCN1C(=O)S/C(=C\c2ccc(F)cc2)C1=O)Nc1ccc(C(=O)O)c(O)c1	> 350 µM (not active)
O=C(NCC1CCCO1)c1cc(-c2ccccc2)on1 (stereo unspecified)	17.2 µM (active)
COc1ccc(NC(=O)c2cccs2)cn1	> 350 µM (not active)
O=C(Nc1nc2c(F)cc(F)cc2s1)c1ccccn1	> 350 µM (not active)
CCCCc1ccc(NC(=O)C2CCN(S(C)(=O)=O)CC2)cc1	> 350 µM (not active)

====

Reported IC50 by item:
# measuredOn: UniProt P03372
# Sequence (P03372 whole entry): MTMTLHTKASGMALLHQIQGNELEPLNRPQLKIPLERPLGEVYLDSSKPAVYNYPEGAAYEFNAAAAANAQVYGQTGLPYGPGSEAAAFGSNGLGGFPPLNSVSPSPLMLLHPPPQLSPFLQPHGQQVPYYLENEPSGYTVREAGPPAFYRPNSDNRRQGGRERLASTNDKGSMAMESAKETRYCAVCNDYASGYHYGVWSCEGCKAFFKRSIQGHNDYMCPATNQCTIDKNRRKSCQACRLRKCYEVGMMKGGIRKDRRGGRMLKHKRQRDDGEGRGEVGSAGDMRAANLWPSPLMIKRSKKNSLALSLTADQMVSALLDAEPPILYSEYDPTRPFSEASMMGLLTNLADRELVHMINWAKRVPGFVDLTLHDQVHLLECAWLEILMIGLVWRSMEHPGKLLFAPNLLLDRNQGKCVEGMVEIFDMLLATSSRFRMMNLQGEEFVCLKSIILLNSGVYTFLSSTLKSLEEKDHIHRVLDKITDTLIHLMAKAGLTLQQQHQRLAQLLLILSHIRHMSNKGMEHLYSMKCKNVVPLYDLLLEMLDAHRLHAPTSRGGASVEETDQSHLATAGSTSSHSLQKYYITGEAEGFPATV
Activity calls are given as the source filed them.

molecule	measuredOn	IC50
CCOC(=O)C1=C(O)/C(=C\c2ccc(CNC(=O)C(=O)Nc3ccccc3)o2)N=C1C	UniProt P03372	5.73 µM (active)
CC(=O)NC(C)C(=O)OCC(=O)Nc1ccc(Br)cc1 (centres undefined)	UniProt P03372	> 50 µM (not active)
CC(=N)/C(C#N)=C(/O)CSc1nnc(COc2ccccc2Cl)o1	UniProt P03372	37.2 µM (not active)
O=S(=O)(NCc1csc(-c2cccnc2)n1)c1ccc(Cl)s1	UniProt P03372	13.6 µM (active)

====

# measuredOn: Sentrin-specific protease 8 (Homo sapiens, UniProt Q96LD8)
# Sequence (Q96LD8 whole entry): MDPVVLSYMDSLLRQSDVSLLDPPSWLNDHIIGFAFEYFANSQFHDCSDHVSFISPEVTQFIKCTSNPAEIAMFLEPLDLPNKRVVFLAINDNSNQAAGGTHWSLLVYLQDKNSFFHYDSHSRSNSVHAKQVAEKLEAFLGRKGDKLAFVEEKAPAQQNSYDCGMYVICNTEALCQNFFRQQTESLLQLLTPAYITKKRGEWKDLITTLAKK
# Type: functional
Active and inactive are the calls of the source.
endpointName: IC50

molecule	obsValue
NC(=O)c1ccc(/N=C/c2ccc([N+](=O)[O-])s2)cc1	2.47 µM (active)
O=C(Nc1c(-c2ccccc2)[nH][nH]c1=O)c1cnccn1	42.5 µM (active)
Cc1n[nH]c(O)c1C(c1ccc(-c2ccc(F)cc2)o1)c1c(C)n[nH]c1O	12.3 µM (active)
CCOc1ccc(N2Nc3[nH]nc(N)c3N2)cc1	52.3 µM (active)
COc1cc(NC(C)CCCN)c2ncccc2c1 (stereo not given) [PRIMAQUINE PHOSPHATE]	0.935 µM (active)
